Tested on: MCF7
assayOverview: Cytotoxicity against human MCF7 cells assessed as reduction in cell viability after 72 hrs by Alamar blue assay
Format: functional, cell-based
conditionSummary: MCF7, 72 h
Where a name gives a salt, the structure may show the parent alone.
Parameter IC50: see the listing below.
valueType: IC50 (µM)

                                   compound  testedon  valuetype  unitslabel  comparisonoperator  valuereported
0  Cl.N/C(=N\O)Nc1ccc(Sc2ccc(N/C(N)=N/O)cc2)cc1      MCF7       IC50          µM                   >            100
1  Cl.N/C(=N\O)Nc1ccc(Oc2ccc(N/C(N)=N/O)cc2)cc1      MCF7       IC50          µM                   =           45.2
2  Cl.N/C(=N\O)Nc1ccc(Cc2ccc(N/C(N)=N/O)cc2)cc1      MCF7       IC50          µM                   >            100
3  N=C(N)c1ccc(-c2ccc(-c3ccc(C(=N)N)cc3)o2)cc1 [FURAMIDINE HYDROCHLORIDE]      MCF7       IC50          µM                   =           92.8
